B1: library; numbered along this chain (parent)
chain: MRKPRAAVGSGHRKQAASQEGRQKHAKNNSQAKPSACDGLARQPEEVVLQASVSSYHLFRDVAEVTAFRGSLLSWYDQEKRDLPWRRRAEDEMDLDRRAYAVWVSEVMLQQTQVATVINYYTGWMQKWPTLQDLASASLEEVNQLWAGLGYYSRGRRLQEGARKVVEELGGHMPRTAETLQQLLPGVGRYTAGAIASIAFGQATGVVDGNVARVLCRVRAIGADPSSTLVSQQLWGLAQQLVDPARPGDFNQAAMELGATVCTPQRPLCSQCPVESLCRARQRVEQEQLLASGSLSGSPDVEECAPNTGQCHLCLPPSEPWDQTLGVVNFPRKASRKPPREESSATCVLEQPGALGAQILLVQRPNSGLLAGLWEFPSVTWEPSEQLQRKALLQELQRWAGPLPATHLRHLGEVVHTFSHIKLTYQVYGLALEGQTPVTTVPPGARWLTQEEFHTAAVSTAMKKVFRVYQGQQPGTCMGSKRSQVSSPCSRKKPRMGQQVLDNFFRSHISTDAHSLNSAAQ

# Variants of: B1
# procedure-summary: 8OG:A repair function score (normalized; synonymous = 0, nonsense = -1) (normalized log-likelihood score); higher = more repair activity (WT-like);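 further: cells sorted at 72 h after reporter transfection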
# particulars: with 8OG:A DNA repair reporter (GFP) in HEK-293 MUTYH KO cells
Below, each entry is listed alongside its reported 8OG:A repair function score.
No unit in the answer, only the number.

Can you share its 8OG:A repair function score? I mean this variant: `T417I` -0.142

Here is the next variant: `S487N` 0.0119

Try the variant `L40N` 0.042

# iterate: `Q126C` -0.239

Cool, now `Q435K` 0.0819

Queued: `W374D` -0.78

What do we get for `Y100E` ? -1.42

Queued: `T449R` 0.00957
